- System: Vero76
- experimental_setup: African green monkey
attribute_measured: CC50 (µM)
# unit: µM | format: bare number

Quick one: CC50 of CC(C)(C)c1ccc(C(=O)NC2CCCC2)cc1 ?
28.1

---

Give measured EC50 for each item. Keep answers brief.
- Test system: ZIKV-RLuc NS4B A245T
- Format: cell-based, Zika virus
A complete answer gives the number and then names the unit.

Quick one: EC50 of CC(C)(C)c1ccc(C(=O)NC2CCCC2)cc1 ?
2290 nM

Quick one: EC50 of CC(C)(C)c1ccc(C(=O)N[C@@H]2C[C@H]3CC[C@@H]2C3)cc1 (relative stereo) ?
450 nM

Quick one: EC50 of CC(C)(C)c1ccc(C(=O)NC2CCCCCC2)cc1 [MWAC-4001, 4-(tert-butyl)-N-cycloheptylbenzamide] ?
1070 nM

Quick one: EC50 of CC(C)(C)c1ccc(C(=O)NC2CCCCC2)cc1 [MWAC-4000, 4-(tert-butyl)-N-cyclohexylbenzamide] ?
680 nM

Quick one: EC50 of CC(C)(C)c1ccc(C(=O)N[C@H]2C[C@H]3CC[C@@H]2C3)cc1 (relative stereo) ?
2770 nM

Quick one: EC50 of CC(C)(C)c1ccc(C(=O)NC2CC3CCC2C3)cc1 (stereo not drawn) ?
810 nM

---

- protocol_notes: in vitro
- experimental_setup: African green monkey, CC50 Vero76
attribute_measured: CC50 (µM)
# unit: µM | format: bare number

Quick one: CC50 of CC(C)(C)c1ccc(C(=O)NC2CCN(Cc3ccccc3)CC2)cc1 ?
58

Quick one: CC50 of CC(C)(C)c1ccc(C(=O)NC2CCCCCC2)cc1 [MWAC-4001, 4-(tert-butyl)-N-cycloheptylbenzamide] ?
12

Quick one: CC50 of CC(C)(C)c1ccc(C(=O)NC2CCCC2)cc1 ?
28

Quick one: CC50 of CC(C)(C)c1ccc(C(=O)N[C@H]2C[C@H]3CC[C@@H]2C3)cc1 (relative stereo) ?
63

---

These compounds were tested on Vero76; CC50 is the recorded read-out.

Quick one: CC50 of C#C[C@@]1(O)[C@H](O)[C@@H](CO)O[C@H]1n1ccc2c(N)ncnc21 [NITD-008, reference compound] ?
19 µM

Quick one: CC50 of O=C(NC1CC2CCC1C2)c1ccc(C(F)(F)F)cc1 (centres unmarked) ?
> 50 µM

Quick one: CC50 of CCc1ccc(C(=O)NC2CC3CCC2C3)cc1 (centres unmarked) ?
> 50 µM

Quick one: CC50 of O=C(NC1CC2CCC1C2)c1ccc(C2CC2)cc1 (centres unmarked) ?
22.7 µM

Quick one: CC50 of CC(C)(O)c1ccc(C(=O)NC2CC3CCC2C3)cc1 (centres unmarked) ?
> 50 µM

Quick one: CC50 of Cc1ccc(C(=O)NC2CC3CCC2C3)cc1 (centres unmarked) ?
> 50 µM

Quick one: CC50 of CC(C)c1ccc(C(=O)NC2CC3CCC2C3)cc1 (centres unmarked) ?
> 50 µM

Quick one: CC50 of COC(C)(C)c1ccc(C(=O)NC2CC3CCC2C3)cc1 (centres unmarked) ?
> 50 µM

---

- System: ZIKV-RLuc
- protocol_notes: microbe, parasite or virus in culture
- Format: cell-based, Zika virus
- experimental_setup: Zika virus; Fig 7; read-out: RLuc EC50
attribute_measured: EC50 (nM)
# unit: nM | format: bare number

Provide value of EC50 for this record tested with ZIKV-RLuc: CC(C)(C)c1ccc(C(=O)NC2CCCCCC2)cc1 [MWAC-4001, 4-(tert-butyl)-N-cycloheptylbenzamide]
50

Provide value of EC50 for this record tested with ZIKV-RLuc: CC(C)(C)c1ccc(C(=O)N[C@@H]2C[C@H]3CC[C@@H]2C3)cc1 (relative stereo) [MWAC-3989]
115

Provide value of EC50 for this record tested with ZIKV-RLuc: CC(C)(C)c1ccc(C(=O)N[C@H]2C[C@H]3CC[C@@H]2C3)cc1 (relative stereo) [MWAC-3992]
580

Provide value of EC50 for this record tested with ZIKV-RLuc: CC(C)(C)c1ccc(C(=O)NC2CC3CCC2C3)cc1 (centres unmarked) [MWAC-3508]
150

Provide value of EC50 for this record tested with ZIKV-RLuc: CC(C)(C)c1ccc(C(=O)NC2CCCCC2)cc1 [MWAC-4000, 4-(tert-butyl)-N-cyclohexylbenzamide]
90

---

pKd: −log10 of the molar value.
attribute_measured: pKd

Provide value of pKd for this record tested with ZIKV NS4B (Zika virus): CC(C)(C)c1ccc(C(=O)N2C[C@H](C(=O)O)[C@@H](c3cccc(F)c3)C2)cc1 (relative stereo)
~4.46

---

- Tested on: ZIKV DAK-41525-MA
- protocol_notes: CPE-protection assay, ZIKV DAK-41525-MA
- Type: cell-based, Zika virus
attribute_measured: pEC50
The meaning of pEC50 here: minus log10 of the concentration in molar units.

Quick one: pEC50 of C#C[C@@]1(O)[C@H](O)[C@@H](CO)O[C@H]1n1ccc2c(N)ncnc21 [NITD-008, reference compound] ?
6.05

---

- Test system: ZIKV-RLuc
- protocol_notes: microbe, parasite or virus in culture
- Format: cell-based, Zika virus
- experimental_setup: Zika virus, Vero 76, 72 h, wild type ZIKV-RLuc, Vero 76, MOI 0.1, three days; read-out: EC50 ZIKV-RLuc
attribute_measured: pEC50
The meaning of pEC50 here: minus log10 of the concentration in molar units.

Quick one: pEC50 of CC(C)(C)c1ccc(C(=O)NC2CCN(Cc3ccccc3)CC2)cc1 [MWAC-3512] ?
5.13

Quick one: pEC50 of CC(C)(C)c1ccc(C(=O)NC2CCCC2)cc1 [MWAC-3475] ?
6.41

Quick one: pEC50 of CC(C)(C)c1ccc(C(=O)NC2CCCCC2)cc1 [MWAC-4000, 4-(tert-butyl)-N-cyclohexylbenzamide] ?
7.52

Quick one: pEC50 of CC(C)(C)c1ccc(C(=O)NC2CCCCCC2)cc1 [MWAC-4001, 4-(tert-butyl)-N-cycloheptylbenzamide] ?
7.40

---

Give measured EC50 for each item. Keep answers brief.
- Tested on: ZIKV-RLuc
- protocol_notes: microbe, parasite or virus in culture
- Assay type: cell-based, Zika virus
- experimental_setup: Zika virus, Vero 76, 72 h, wild type ZIKV-RLuc, Vero 76, MOI 0.1, three days; read-out: EC50 ZIKV-RLuc
A complete answer gives the number and then names the unit.

Quick one: EC50 of CC(C)(C)c1ccc(C(=O)NC2CCOC2)cc1 (centres unmarked) ?
6100 nM

Quick one: EC50 of CC(C)(C)c1ccc(C(=O)N[C@@H]2C[C@H]3CC[C@@H]2C3)cc1 (relative stereo) ?
70 nM

Quick one: EC50 of CC(C)(C)c1ccc(C(=O)N[C@H]2C[C@H]3CC[C@@H]2C3)cc1 (relative stereo) ?
340 nM

Quick one: EC50 of CC(C)(C)c1ccc(C(=O)NC2CC3CCC2C3)cc1 (centres unmarked) ?
110 nM

Quick one: EC50 of CC(NC(=O)c1ccc(C(C)(C)C)cc1)c1ccncc1 (centres unmarked) ?
15000 nM

---

- Tested on: ZIKV PLCal
- protocol_notes: CPE-based anti-ZIKV concentration-response assay (96-well)
- Format: cell-based, Zika virus
- experimental_setup: Vero 76, MOI 0.05, 3-day incubation, CellTiter-Glo; read-out: EC50-CPE ZIKV-PLCal
Cut-off 30 µM on EC50: below means Yes, at or above means No.

Hello, I'm reviewing records and need to know if EC50 of COC(C)(C)c1ccc(C(=O)NC2CC3CCC2C3)cc1 (stereo not shown) is below 30 µM. Could you check?
Yes

Hello, I'm reviewing records and need to know if EC50 of CCc1ccc(C(=O)NC2CC3CCC2C3)cc1 (stereo not shown) is below 30 µM. Could you check?
Yes

Hello, I'm reviewing records and need to know if EC50 of CC(C)(O)c1ccc(C(=O)NC2CC3CCC2C3)cc1 (stereo not shown) is below 30 µM. Could you check?
No

Hello, I'm reviewing records and need to know if EC50 of C#C[C@@]1(O)[C@H](O)[C@@H](CO)O[C@H]1n1ccc2c(N)ncnc21 [NITD-008, reference compound] is below 30 µM. Could you check?
Yes

Hello, I'm reviewing records and need to know if EC50 of CC(C)c1ccc(C(=O)NC2CC3CCC2C3)cc1 (stereo not shown) is below 30 µM. Could you check?
Yes

Hello, I'm reviewing records and need to know if EC50 of O=C(NC1CC2CCC1C2)c1ccc(C(F)(F)F)cc1 (stereo not shown) is below 30 µM. Could you check?
No

Hello, I'm reviewing records and need to know if EC50 of O=C(NC1CC2CCC1C2)c1ccc(C2CC2)cc1 (stereo not shown) is below 30 µM. Could you check?
No

---

- System: ZIKV PRVABC59
- protocol_notes: microbe, parasite or virus in culture
- Assay type: cell-based
- experimental_setup: Zika virus; CPE-protection
attribute_measured: EC50 (nM)
# unit: nM | format: bare number

Quick one: EC50 of CC(C)(C)c1ccc(C(=O)NC2CCCC2)cc1 [MWAC-3475] ?
910
